# pIC50 listing for each entry below
# EXPERIMENTAL TARGET: PAF receptor (human platelet plasma membrane) (Homo sapiens)
# Construct: Platelet concentrates were obtained from a hospital blood bank; from tissue; host or cells: human platelets (hospital blood bank concentrates), lysed platelet membranes
# Sequence (P25105 whole entry): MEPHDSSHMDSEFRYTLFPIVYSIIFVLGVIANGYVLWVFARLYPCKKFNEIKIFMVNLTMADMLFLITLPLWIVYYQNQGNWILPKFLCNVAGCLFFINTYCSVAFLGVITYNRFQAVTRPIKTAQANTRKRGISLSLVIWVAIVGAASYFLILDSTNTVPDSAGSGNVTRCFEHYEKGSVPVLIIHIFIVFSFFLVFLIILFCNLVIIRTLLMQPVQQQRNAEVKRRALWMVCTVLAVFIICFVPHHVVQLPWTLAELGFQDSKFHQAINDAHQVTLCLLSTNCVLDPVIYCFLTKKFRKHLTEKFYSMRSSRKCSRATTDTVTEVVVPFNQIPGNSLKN
# EXPERIMENT SUMMARY: Inhibition of ^3 H-PAF receptor binding to human platelet plasma membrane
# RUN CONDITIONS: ^3 H-PAF 0.5 nM, 0° C., 1 hour
Recall that pIC50 is obtained by taking minus log10 of the concentration measured in molar.

| MOLECULE | EXPERIMENTAL TARGET | pIC50 |
| --- | --- | --- |
| CCN(C(=O)c1ccc(Cn2c(C)nc3ccccc32)cc1)C1CCCCC1 | PAF receptor (human platelet plasma membrane) (Homo sapiens) | 6.30 |
| Cc1nc2ccccc2n1Cc1ccc(S(=O)(=O)N2CCCCC2)cc1 | PAF receptor (human platelet plasma membrane) (Homo sapiens) | 5.70 |
| CSc1nc2ccccc2n1Cc1ccc(C(=O)N(C)C2CCCCC2)cc1 | PAF receptor (human platelet plasma membrane) (Homo sapiens) | 5.52 |
| Cc1nc2ccccc2n1Cc1ccc(N(C)P(=O)(c2ccccc2)c2ccccc2)cc1 | PAF receptor (human platelet plasma membrane) (Homo sapiens) | 6.30 |

Now consider the entry below.
Recorded result, CSC(c1ccc(C(=O)N(C)C2CCCCC2)cc1)n1cnc2ccccc21 (centres unmarked) , pIC50: 6.30

----------
# EXPERIMENTAL TARGET: PAF receptor (human platelet plasma membrane) (Homo sapiens)
# Construct: Platelet concentrates were obtained from a hospital blood bank
# EXPERIMENT SUMMARY: Inhibition of ^3 H-PAF receptor binding to human platelet plasma membrane
# RUN CONDITIONS: ^3 H-PAF 0.5 nM, 0° C., 1 hour
METRIC NAME: IC50

In the examples that follow, each entry is paired with its recorded IC50.
| COMPOUND | IC50 |
| --- | --- |
| Cc1nc2ccccc2n1Cc1ccc(C(=O)N(C2CCCCC2)C2CCCCC2)cc1 | 650 nM |
| Cc1nc2ccccc2n1Cc1ccc(NC(=O)C2CCCCC2)cc1 | 2000 nM |
| Cc1nc2ccccc2n1Cc1ccc(S(=O)(=O)NCc2ccccc2Cl)cc1 | 900 nM |
| Cc1nc2ccccc2n1Cc1ccc(S(=O)(=O)N2CCC[C@H]3CCCC[C@@H]32)cc1 (relative stereo) | 700 nM |
| Cc1nc2ccccc2n1Cc1ccc(S(=O)(=O)N(C)C2CCCCC2)cc1 | 300 nM |
| CCN(C1CCCCC1)S(=O)(=O)c1ccc(Cn2c(C)nc3ccccc32)cc1 | 500 nM |

// moving on: another record for IC50
Value (IC50, PAF receptor (human platelet plasma membrane) (Homo sapiens)) for record Cc1nc2cc([N+](=O)[O-])ccc2n1Cc1ccc(S(=O)(=O)N(C)C2CCCCC2)cc1 = 5000 nM
